# experimental_target: CtermHisTag-mEGFR Wild type (Homo sapiens)
# Sequence (P00533 whole entry): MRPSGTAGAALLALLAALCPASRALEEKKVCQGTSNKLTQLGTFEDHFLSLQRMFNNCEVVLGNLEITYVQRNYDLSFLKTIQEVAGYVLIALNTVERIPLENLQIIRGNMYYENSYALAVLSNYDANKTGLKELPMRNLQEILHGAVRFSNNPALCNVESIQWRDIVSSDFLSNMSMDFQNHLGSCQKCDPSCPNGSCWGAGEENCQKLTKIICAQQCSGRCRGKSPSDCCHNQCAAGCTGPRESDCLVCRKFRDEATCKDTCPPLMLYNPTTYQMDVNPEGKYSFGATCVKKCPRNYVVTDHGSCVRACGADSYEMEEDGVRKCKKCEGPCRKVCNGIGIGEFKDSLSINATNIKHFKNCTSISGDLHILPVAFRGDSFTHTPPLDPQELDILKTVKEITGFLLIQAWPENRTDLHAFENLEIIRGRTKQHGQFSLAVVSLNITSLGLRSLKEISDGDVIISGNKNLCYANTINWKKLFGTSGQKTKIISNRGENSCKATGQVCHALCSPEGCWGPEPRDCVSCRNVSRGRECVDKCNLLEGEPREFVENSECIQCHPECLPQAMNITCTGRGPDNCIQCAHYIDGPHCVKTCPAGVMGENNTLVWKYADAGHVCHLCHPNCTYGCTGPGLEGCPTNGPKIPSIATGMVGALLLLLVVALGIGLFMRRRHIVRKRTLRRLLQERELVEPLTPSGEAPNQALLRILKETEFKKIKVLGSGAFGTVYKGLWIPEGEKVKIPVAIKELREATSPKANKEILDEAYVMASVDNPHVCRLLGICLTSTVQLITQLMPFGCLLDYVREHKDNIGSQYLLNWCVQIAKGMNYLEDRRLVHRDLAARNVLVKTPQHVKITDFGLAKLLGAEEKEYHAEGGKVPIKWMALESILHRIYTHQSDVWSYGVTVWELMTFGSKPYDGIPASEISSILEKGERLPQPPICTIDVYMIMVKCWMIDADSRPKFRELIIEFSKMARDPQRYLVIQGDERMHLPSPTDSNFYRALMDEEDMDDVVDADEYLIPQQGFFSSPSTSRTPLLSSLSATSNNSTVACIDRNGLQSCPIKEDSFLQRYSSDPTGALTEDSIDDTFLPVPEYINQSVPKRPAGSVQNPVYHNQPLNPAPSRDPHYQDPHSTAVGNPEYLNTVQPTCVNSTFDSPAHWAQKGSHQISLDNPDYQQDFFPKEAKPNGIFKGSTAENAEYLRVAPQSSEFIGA
# method_summary: biochemical

# compound, IC50
records = [
    ("C#Cc1cc(=O)n(-c2ccc([N+](=O)[O-])cc2)c2nc(Nc3ccccc3OC)ncc12 [Example 60]", "1000 to 10000 nM"),
    ("C#Cc1c(N(C)C)c(=O)n(-c2ccccc2)c2nc(Nc3ccccc3OC)ncc12 [Example 147]", "> 10000 nM"),
    ("C#Cc1c(N)c(=O)n(-c2ccccc2)c2nc(Nc3ccccc3OC)ncc12 [Example 142]", "> 10000 nM"),
    ("C#Cc1cc(=O)n([C@H]2CC[C@H](NC(=O)c3ccnnc3)CC2)c2nc(Nc3ccc(N4CCN(C)CC4)cc3)ncc12 [Example 89]", "< 1000 nM"),
    ("C#Cc1c(-c2cccc(F)c2Cl)c(=O)n(C)c2nc(Nc3ccc(N(C)CCN(C)C)cc3)ncc12 [Example 135]", "< 1000 nM"),
    ("C#Cc1cc(=O)n(C)c2nc(Nc3ccc(N4CCN(C)CC4)c(C(=O)NCC4CCCC4)c3)ncc12 [Example 221]", "1000 to 10000 nM"),
    ("C#Cc1cc(=O)n(-c2ccc(OC)cc2OC)c2nc(Nc3ccccc3OC)ncc12 [Example 75]", "> 10000 nM"),
    ("C#Cc1cc(=O)n(-c2ccccc2)c2nc(Nc3ccccc3)ncc12 [Example 5]", "1000 to 10000 nM"),
    ("C#Cc1cc(=O)n(C)c2nc(Nc3ccc(N4CCN(C)CC4)c(OCCC)c3)ncc12 [Example 207]", "< 1000 nM"),
    ("C#Cc1cc(=O)n([C@H]2CC[C@@H](NC(=O)CCC(=O)N(C)C)CC2)c2nc(Nc3ccc(N4CCN(C)CC4)cc3)ncc12 [Example 93]", "1000 to 10000 nM"),
    ("C#Cc1cc(=O)n(-c2ccccc2)c2nc(Nc3ccc(OCCN(C)C)cc3)ncc12 [Example 13]", "< 1000 nM"),
]

---

# experimental_target: Phospho-EGFR (Tyr1068) in H1975 cells (Homo sapiens, UniProt P00533, L858R/T790M)
# Sequence (P00533 25-1210 T790M/L858R): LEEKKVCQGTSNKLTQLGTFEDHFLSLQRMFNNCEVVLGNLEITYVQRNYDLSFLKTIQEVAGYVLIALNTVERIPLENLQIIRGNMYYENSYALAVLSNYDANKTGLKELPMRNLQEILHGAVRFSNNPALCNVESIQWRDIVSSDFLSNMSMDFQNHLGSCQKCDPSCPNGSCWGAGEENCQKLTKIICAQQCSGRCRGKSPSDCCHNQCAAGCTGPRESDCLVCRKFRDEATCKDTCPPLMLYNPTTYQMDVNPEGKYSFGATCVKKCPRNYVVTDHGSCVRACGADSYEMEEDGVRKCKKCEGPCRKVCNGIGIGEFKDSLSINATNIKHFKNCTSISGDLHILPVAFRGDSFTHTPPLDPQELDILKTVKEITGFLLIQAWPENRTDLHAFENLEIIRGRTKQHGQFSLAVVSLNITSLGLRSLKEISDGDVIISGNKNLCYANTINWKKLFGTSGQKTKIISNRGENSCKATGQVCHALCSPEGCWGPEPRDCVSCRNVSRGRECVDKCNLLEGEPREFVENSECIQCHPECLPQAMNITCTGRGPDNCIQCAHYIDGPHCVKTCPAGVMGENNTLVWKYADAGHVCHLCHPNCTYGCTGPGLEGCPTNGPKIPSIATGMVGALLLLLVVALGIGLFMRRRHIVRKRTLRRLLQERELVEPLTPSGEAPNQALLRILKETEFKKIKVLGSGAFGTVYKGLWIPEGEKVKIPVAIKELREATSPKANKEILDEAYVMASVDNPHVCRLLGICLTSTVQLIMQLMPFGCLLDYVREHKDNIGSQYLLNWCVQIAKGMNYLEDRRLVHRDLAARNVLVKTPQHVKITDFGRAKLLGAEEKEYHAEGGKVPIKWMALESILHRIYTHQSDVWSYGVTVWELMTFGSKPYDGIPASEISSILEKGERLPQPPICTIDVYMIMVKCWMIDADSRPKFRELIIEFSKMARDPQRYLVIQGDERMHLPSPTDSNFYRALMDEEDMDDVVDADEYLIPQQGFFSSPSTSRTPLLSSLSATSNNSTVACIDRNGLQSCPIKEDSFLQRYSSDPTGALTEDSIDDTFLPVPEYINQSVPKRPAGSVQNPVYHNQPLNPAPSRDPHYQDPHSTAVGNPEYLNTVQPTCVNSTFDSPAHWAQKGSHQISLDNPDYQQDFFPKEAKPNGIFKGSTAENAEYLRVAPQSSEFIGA
# method_summary: HTRF pEGFR/total EGFR in H1975 cells
# experimental_parameters: ratio pEGFR/total EGFR, compound 3 hours
pIC50: −log10 of the molar value.
Listed compounds paired with reported pIC50
endpoint_label: pIC50

# compound, endpoint_label, test_value
measured = [
    ("C#Cc1cc(=O)n(-c2ccccc2)c2nc(Nc3ccc(N4CCNC(C)C4)cc3)ncc12 (stereo not shown)", "pIC50", "> 6.30"),
    ("C#Cc1cc(=O)n([C@H]2CC[C@@H](NC(=O)Cc3cn[nH]c3)CC2)c2nc(Nc3ccc(N4CCN(C)CC4)cc3)ncc12", "pIC50", "6.00 to 6.30"),
    ("C#Cc1cc(=O)n2c3nc(ncc13)Nc1ccc(N3CCN(C)CC3)c(c1)OCCCCC2C (stereo not shown)", "pIC50", "> 6.30"),
    ("C#Cc1c(C)c(=O)n2c3nc(ncc13)Nc1cccc(c1)OC/C=C\\C2", "pIC50", "5.52 to 6.00"),
    ("C#Cc1c(Nc2ccccc2)c(=O)n(C)c2nc(Nc3ccc(N(C)CCN(C)C)cc3)ncc12", "pIC50", "5.52 to 6.00"),
    ("C#Cc1cc(=O)n(C)c2nc(Nc3ccc(N4CCN(C)CC4)c(NC(=O)CC)c3)ncc12", "pIC50", "> 6.30"),
    ("C#Cc1cc(=O)n([C@H]2CC[C@@H](NC(=O)CC(=O)NC)CC2)c2nc(Nc3ccc(N4CCN(C)CC4)cc3)ncc12", "pIC50", "6.00 to 6.30"),
    ("C#Cc1cc(=O)n([C@H]2CC[C@H](NC(=O)c3ccnnc3)CC2)c2nc(Nc3ccc(N4CCN(C)CC4)cc3)ncc12", "pIC50", "> 6.30"),
    ("C#Cc1c(C)c(=O)n(Cc2ccno2)c2nc(Nc3ccc(N4CCN(C)CC4)cc3)ncc12", "pIC50", "5.52 to 6.00"),
    ("C#Cc1cc(=O)n(C2CCCC2)c2nc(Nc3cccc(N(C)[C@H]4CC[C@H](CS(C)(=O)=O)CC4)c3)ncc12", "pIC50", "< 5.52"),
    ("C#Cc1cc(=O)n(C)c2nc(Nc3ccc(N4CCN(C)CC4)c(OCCC(C)C)c3)ncc12", "pIC50", "> 6.30"),
    ("C#Cc1cc(=O)n2c3nc(ncc13)Nc1ccc(N3CCN(C)CC3)c(c1)CN(C)CCC2", "pIC50", "> 6.30"),
    ("C#Cc1cc(=O)n2c3nc(ncc13)Nc1ccc(N3CCN(C)CC3)c(c1)S(=O)(=O)NCCC2", "pIC50", "5.52 to 6.00"),
    ("C#Cc1cc(=O)n(C2CCNC2=O)c2nc(Nc3ccc(N4CCN(C)CC4)cc3)ncc12 (stereo not shown)", "pIC50", "> 6.30"),
    ("C#Cc1c(C)c(=O)n(C)c2nc(Nc3ccc(N4CCN(C)CC4)cc3)ncc12", "pIC50", "< 5.52"),
    ("C#Cc1cc(=O)n(-c2ccccc2)c2nc(Nc3ccc(N4CCN(C)CC4)c(C)c3)ncc12", "pIC50", "> 6.30"),
]

---

pIC50 reference
# experimental_target: CtermHisTag-mEGFR Wild type (Homo sapiens)
# method_summary: biochemical
pIC50: −log10 of the molar value.
endpoint_label: pIC50

# smiles_notation, test_value
measured = [
    ("C#Cc1cc(=O)n(-c2ccccc2)c2nc(Nc3ccc(N(C)C(=O)CN(C)C)cc3OC)ncc12", "5.00 to 6.00"),
    ("C#Cc1cc(=O)n(CC2CCCC2)c2nc(Nc3ccc(N4CCN(C)CC4)cc3)ncc12", "> 6.00"),
    ("C#Cc1cc(=O)n(C)c2nc(Nc3ccccc3OC)ncc12", "< 5.00"),
    ("C#Cc1cc(=O)n2c3nc(ncc13)Nc1ccc(N3CCN(C)CC3)c(c1)OCCCCCC2", "> 6.00"),
    ("C#Cc1c(-c2ccccc2Cl)c(=O)n(C)c2nc(Nc3ccc(N4CCN(C)CC4)cc3)ncc12", "> 6.00"),
]

---

# experimental_target: Phospho-EGFR (Tyr1068) in A431 cells (Homo sapiens)
# Construct: endogenous in cells
# Sequence (P00533 25-1210): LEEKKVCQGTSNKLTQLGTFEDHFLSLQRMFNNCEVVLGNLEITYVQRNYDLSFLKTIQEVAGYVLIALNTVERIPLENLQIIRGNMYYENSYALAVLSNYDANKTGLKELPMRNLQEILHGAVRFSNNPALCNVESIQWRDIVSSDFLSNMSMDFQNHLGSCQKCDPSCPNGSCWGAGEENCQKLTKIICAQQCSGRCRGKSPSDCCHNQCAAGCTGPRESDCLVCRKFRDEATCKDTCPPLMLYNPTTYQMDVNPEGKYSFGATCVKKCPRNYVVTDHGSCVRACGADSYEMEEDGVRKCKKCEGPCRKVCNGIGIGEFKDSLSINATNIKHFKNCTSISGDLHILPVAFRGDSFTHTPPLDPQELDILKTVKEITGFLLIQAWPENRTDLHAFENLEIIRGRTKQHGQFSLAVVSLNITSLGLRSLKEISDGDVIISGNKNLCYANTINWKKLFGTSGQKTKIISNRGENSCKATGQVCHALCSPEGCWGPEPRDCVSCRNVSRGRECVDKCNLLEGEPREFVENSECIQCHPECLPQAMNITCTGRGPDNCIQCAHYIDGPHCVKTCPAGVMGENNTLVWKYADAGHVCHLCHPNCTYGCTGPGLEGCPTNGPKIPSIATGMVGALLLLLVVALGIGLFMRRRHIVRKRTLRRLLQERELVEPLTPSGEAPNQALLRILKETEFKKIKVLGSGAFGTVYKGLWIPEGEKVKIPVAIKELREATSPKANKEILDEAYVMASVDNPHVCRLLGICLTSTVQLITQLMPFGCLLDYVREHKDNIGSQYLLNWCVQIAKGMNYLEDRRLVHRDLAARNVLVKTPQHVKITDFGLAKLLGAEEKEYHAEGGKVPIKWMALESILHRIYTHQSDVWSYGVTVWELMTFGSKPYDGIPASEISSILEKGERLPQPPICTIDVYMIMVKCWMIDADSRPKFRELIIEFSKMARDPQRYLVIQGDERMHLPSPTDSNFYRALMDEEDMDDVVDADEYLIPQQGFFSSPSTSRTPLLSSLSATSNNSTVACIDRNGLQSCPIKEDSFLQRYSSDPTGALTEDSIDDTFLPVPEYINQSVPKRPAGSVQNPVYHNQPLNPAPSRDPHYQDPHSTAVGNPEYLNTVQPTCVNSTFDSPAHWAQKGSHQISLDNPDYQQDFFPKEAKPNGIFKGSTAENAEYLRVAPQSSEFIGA
# method_summary: HTRF pEGFR/total EGFR in A431 cells with EGF stimulation
# experimental_parameters: ratio pEGFR/total EGFR, compound 2.5 hours then 100 ng/ml EGF 30 mins
pIC50: −log10 of the molar value.
endpoint_label: pIC50

# molecule, test_value
data = [
    ("C#Cc1cc(=O)n(-c2ccccc2)c2nc(Nc3ccc(N4CCN(C(C)C)CC4)cc3)ncc12", "5.52 to 6.00"),
    ("C#Cc1cc(=O)n(-c2ccccc2)c2nc(Nc3ccc(N4CCN(C)CC4)c(CO)c3)ncc12", "< 5.52"),
    ("C#Cc1cc(=O)n(C2CCNC2=O)c2nc(Nc3ccc(N4CCN(C)CC4)cc3)ncc12 (stereo not drawn)", "< 5.52"),
]

---

Entries annotated with measured pIC50
# experimental_target: Phospho-EGFR (Tyr1068) in H1975 C797S cells (CRISPR-edited EGFR C797S) (Homo sapiens, UniProt P00533, C797S/L858R/T790M)
# Sequence (P00533 25-1210 T790M/C797S/L858R): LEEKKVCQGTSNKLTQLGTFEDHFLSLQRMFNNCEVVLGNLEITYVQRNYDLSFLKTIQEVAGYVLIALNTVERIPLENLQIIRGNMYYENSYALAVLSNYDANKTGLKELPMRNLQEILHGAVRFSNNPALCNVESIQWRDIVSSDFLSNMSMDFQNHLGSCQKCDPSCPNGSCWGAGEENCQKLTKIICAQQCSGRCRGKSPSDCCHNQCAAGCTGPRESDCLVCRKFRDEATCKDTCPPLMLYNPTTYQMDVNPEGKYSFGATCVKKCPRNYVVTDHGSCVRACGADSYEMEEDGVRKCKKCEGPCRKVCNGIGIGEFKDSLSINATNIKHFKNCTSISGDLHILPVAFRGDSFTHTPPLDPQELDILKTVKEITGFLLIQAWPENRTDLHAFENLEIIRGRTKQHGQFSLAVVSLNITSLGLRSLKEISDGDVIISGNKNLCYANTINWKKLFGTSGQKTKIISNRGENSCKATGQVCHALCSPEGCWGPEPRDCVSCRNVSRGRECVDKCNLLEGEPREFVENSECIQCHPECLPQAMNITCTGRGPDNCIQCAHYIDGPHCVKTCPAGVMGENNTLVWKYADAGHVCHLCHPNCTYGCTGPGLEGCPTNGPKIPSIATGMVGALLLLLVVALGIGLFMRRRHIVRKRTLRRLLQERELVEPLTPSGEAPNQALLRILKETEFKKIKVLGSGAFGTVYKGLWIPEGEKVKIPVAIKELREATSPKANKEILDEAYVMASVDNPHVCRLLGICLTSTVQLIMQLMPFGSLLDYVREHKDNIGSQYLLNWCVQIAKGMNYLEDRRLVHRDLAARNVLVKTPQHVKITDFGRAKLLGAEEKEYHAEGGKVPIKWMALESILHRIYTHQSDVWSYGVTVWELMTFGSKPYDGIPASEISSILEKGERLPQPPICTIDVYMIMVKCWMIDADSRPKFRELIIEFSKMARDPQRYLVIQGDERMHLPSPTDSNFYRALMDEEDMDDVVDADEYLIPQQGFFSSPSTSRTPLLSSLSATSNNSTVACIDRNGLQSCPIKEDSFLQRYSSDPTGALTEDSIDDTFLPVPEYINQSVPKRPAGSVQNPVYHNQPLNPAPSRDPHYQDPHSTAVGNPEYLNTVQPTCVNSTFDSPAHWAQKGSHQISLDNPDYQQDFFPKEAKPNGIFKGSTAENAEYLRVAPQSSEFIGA
# method_summary: HTRF pEGFR/total EGFR in H1975 C797S cells
# experimental_parameters: ratio pEGFR/total EGFR, compound 3 hours
# Procedure: […]. Once adhered (after 24 h) cells were treated with compounds dissolved in DMSO at a final concentration of 0.1% DMSO in media. Compounds were diluted in media then added to cells for 3 hours in duplicate. […] Cells were lysed on a plate shaker (2000 rpm) for 30 minutes at room temperature. pEGFR expression was monitored using the Cisbio Phospho-EGFR (Tyr1068) cellular kit (64EG1PEH). […] Fluorescence emission was read at two different wavelengths (665 nm and 620 nm) on a PheraStar. […]
pIC50: −log10 of the molar value.

# molecule, pIC50
records = [
    ("C#Cc1cc(=O)n2c3nc(ncc13)Nc1cccc(c1)COC/C=C\\C2 [Example 195]", "< 5.52"),
    ("C#Cc1cc(=O)n(C2CCCC2)c2nc(Nc3cccc(N(C)[C@H]4C[C@H](CS(C)(=O)=O)C4)c3)ncc12 [Example 205]", "< 5.52"),
    ("C#Cc1cc(=O)n2c3nc(ncc13)Nc1ccc(N3CCN(C)CC3)c(c1)OCCOCC2 [Example 232]", "> 6.30"),
    ("C#Cc1cc(=O)n(C2CCCC2)c2nc(Nc3ccccc3N3CCCC(CS(C)(=O)=O)C3)ncc12 (centres unmarked) [Example 202]", "< 5.52"),
    ("C#Cc1c(-c2ccccc2Cl)c(=O)n(C)c2nc(Nc3ccc(N4CCN(C)CC4)cc3)ncc12 [Example 128]", "< 5.52"),
    ("C#Cc1cc(=O)n2c3nc(ncc13)Nc1ccc(N3CCCN(C)CC3)c(c1)NC(=O)CCC2 [Example 238]", "> 6.30"),
    ("C#Cc1c(C)c(=O)n(Cc2ccccn2)c2nc(Nc3ccc(N4CCN(C)CC4)cc3)ncc12 [Example 178]", "6.00 to 6.30"),
    ("C#Cc1cc(=O)n(-c2cccc([N+](=O)[O-])c2)c2nc(Nc3ccccc3OC)ncc12 [Example 54]", "< 5.52"),
    ("C#Cc1cc(=O)n(-c2ccc(OC)cc2OC)c2nc(Nc3ccc(N(C)CCN(C)C)cc3)ncc12 [Example 86]", "6.00 to 6.30"),
    ("C#Cc1cc(=O)n(C2CCCC2O)c2nc(Nc3ccc(N4CCN(C)CC4)cc3)ncc12 (centres unmarked) [Example 73]", "5.52 to 6.00"),
    ("C#Cc1cc(=O)n(C2CCNC2=O)c2nc(Nc3ccc(N4CCN(C)CC4)cc3)ncc12 (centres unmarked) [Example 104]", "6.00 to 6.30"),
    ("C#Cc1cc(=O)n(-c2ccccc2)c2nc(Nc3ccc(N4CCC(N5CC(COC)C5)CC4)cc3)ncc12 [Example 39]", "> 6.30"),
    ("C#Cc1cc(=O)n2c3nc(ncc13)Nc1ccc(N3CCN(C)CC3)c(c1)CCNC(=O)C2 [Example 227]", "< 5.52"),
    ("C#Cc1cc(=O)n(C2CCCC2)c2nc(Nc3cccc(N(C)[C@H]4CC[C@H](CS(C)(=O)=O)CC4)c3)ncc12 [Example 206]", "< 5.52"),
    ("C#Cc1cc(=O)n(Cc2ccn(C)n2)c2nc(Nc3ccc(N4CCN(C)CC4)c(OCCC4CCCC4)c3)ncc12 [Example 210]", "> 6.30"),
    ("C#Cc1cc(=O)n2c3nc(ncc13)Nc1ccc(N3CCN(C)CC3)c(c1)N(C)C(=O)CCC2 [Example 225]", "5.52 to 6.00"),
    ("C#Cc1cc(=O)n([C@H]2CC[C@@H](NC(=O)CCC(=O)NC)CC2)c2nc(Nc3ccc(N4CCN(C)CC4)cc3)ncc12 [Example 98]", "< 5.52"),
    ("C#Cc1cc(=O)n2c3nc(ncc13)Nc1ccc(N3CCN(C)CC3)c(c1)NCCCC2 [Example 198]", "> 6.30"),
    ("C#Cc1cc(=O)n(C2CCCC2)c2nc(Nc3cccc(N(C)[C@H]4CC[C@@H](CS(C)(=O)=O)CC4)c3)ncc12 [Example 204]", "< 5.52"),
    ("C#Cc1cc(=O)n([C@H]2CC[C@@H](NC(=O)C(C)C)CC2)c2nc(Nc3ccc(N4CCN(C)CC4)cc3)ncc12 [Example 82]", "> 6.30"),
    ("C#Cc1cc(=O)n(C2CCCC2)c2nc(Nc3cccc(CN4CCC(CS(C)(=O)=O)C4)c3)ncc12 (centres unmarked) [Example 182]", "< 5.52"),
    ("C#Cc1cc(=O)n2c3nc(ncc13)Nc1ccc(N3CCN(C)CC3)c(c1)OC[C@@H]1CC[C@@H](C1)C2 [Example 233]", "> 6.30"),
    ("C#Cc1c(C)c(=O)n([C@H]2CC[C@@H](NC(C)=O)CC2)c2nc(Nc3ccc(N4CCN(C)CC4)cc3)ncc12 [Example 103]", "5.52 to 6.00"),
    ("C#Cc1cc(=O)n2c3nc(ncc13)Nc1cccc(c1)OCCC2 [Example 186]", "< 5.52"),
    ("C#Cc1cc(=O)n(Cc2ccn(C)n2)c2nc(Nc3ccc(N4CCN(C)CC4)cc3)ncc12 [Example 118]", "> 6.30"),
    ("C#Cc1c(C)c(=O)n(Cc2ccnn2C)c2nc(Nc3ccc(N4CCN(C)CC4)cc3)ncc12 [Example 112]", "5.52 to 6.00"),
]
